Values were extracted from paper PMC10222270.

Biological target: SARS CoV-2 M^pro (Severe acute respiratory syndrome coronavirus 2)
Construct: The main protease (M^pro) is a part of the polyprotein chain, also named 3C-like protease; SUMO (cleaved yes); His; made in house; host or cells: Escherichia coli BL21(DE3)
Assay: biochemical
Type: biochemical
Conditions: Without Triton X−100
Where a name gives a salt, the structure may show the parent alone.
Catalogue of pIC50 readings, one per entry.
Scale explanation: pIC50 corresponds to minus log10 of a concentration expressed in moles per litre.

Examples with their reported pIC50 follow.
compound | pIC50
COc1cc(O)c2c(c1)oc(=O)c1c3cc(O)c(O)cc3oc21 | 6.00
CC(C)=CC[C@H](OC(=O)C=C(C)C)C1=CC(=O)c2c(O)ccc(O)c2C1=O | 5.56
Cc1c(=O)c(=O)c2c3c[nH]c4c(C)c(=O)c(=O)c(c5c[nH]c1c52)c43 | 5.13
CC(C)CCCC(C)C1CCC2C3CC=C4CC(OS(=O)(=O)O)CCC4(C)C3CCC12C (centres unmarked) [cholesteryl sodium sulfate, Cholesteryl sodium sulfate] | 5.56
CC(=O)OCCc1ccc(O)c(O)c1 [hydroxytyrosol acetate, Hydroxytyrosol Acetate] | 5.41
COc1cc(C(=S)N2CCOCC2)ccc1O [vanitiolide, Vanitiolide] | 5.55
COc1cc2ccc(=O)oc2c(O)c1O | 5.60

What value of pIC50 has been recorded for this entry: `CCCCCC/C=C\CCCCCCCc1cccc(O)c1C(=O)O` 5.03

###

Catalogue of inhibition at 80 µM readings, one per entry.
Molecular target: SARS CoV-2 M^pro (Severe acute respiratory syndrome coronavirus 2, UniProt P0DTD1)
Construct: The main protease (M^pro) is a part of the polyprotein chain, also named 3C-like protease; SUMO (cleaved yes); His; made in house; host or cells: Escherichia coli BL21(DE3)
Experiment: biochemical
Format: biochemical
Settings: read-out: Inhibition%(80μM)
Response body: numeric value in %, unit text excluded.

Examples with their reported inhibition at 80 µM follow.
compound | inhibition at 80 µM [%]
CCCOC(=O)c1cc(O)c(O)c(O)c1 [Propyl Gallate] | 78.5
CCCCC/C=C\C/C=C\C/C=C\C/C=C\CCCC(=O)O | 82.2
Cc1c(=O)c(=O)c2c3c[nH]c4c(C)c(=O)c(=O)c(c5c[nH]c1c52)c43 | 95.8

What value of inhibition at 80 µM has been recorded for this entry: `CC1=CC(=O)c2c(O)cccc2C1=O` 70.2

// next record `O=C(O)[C@H]1O[C@@H](Oc2cc3oc(-c4ccccc4)cc(=O)c3c(O)c2O)[C@H](O)[C@@H](O)[C@@H]1O` 77.5

// next record O=C(O[C@@H]1Cc2c(O)cc(O)cc2O[C@@H]1c1cc(O)c(O)c(O)c1)c1cc(O)c(O)c(O)c1 [(-)-Epigallocatechin Gallate] 82.6

// next record O=C(O[C@@H]1Cc2c(O)cc(O)cc2O[C@H]1c1cc(O)c(O)c(O)c1)c1cc(O)c(O)c(O)c1 [(−)–gallocatechin gallate, (-)-Gallocatechin Gallate] 101

// next record `O=C(/C=C/c1ccc(O)c(O)c1)O[C@@H]1C[C@@](OC(=O)/C=C/c2ccc(O)c(O)c2)(C(=O)O)C[C@@H](O)[C@@H]1O` 74.6

###

Molecular target: SARS CoV-2 M^pro (Severe acute respiratory syndrome coronavirus 2)
Construct: The main protease (M^pro) is a part of the polyprotein chain, also named 3C-like protease; SUMO (cleaved yes); His; made in house; host or cells: Escherichia coli BL21(DE3)
Assay: biochemical
Format: biochemical
Conditions: read-out: Inhibition%(80μM)
measure name: inhibition at 80 µM
Answer format: value, then unit.

Examples with their reported inhibition at 80 µM follow.
compound | system under test | inhibition at 80 µM
C[C@@H]1OC(O[C@@H]2[C@@H](O)[C@H](OCCc3ccc(O)c(O)c3)O[C@H](CO[C@@H]3OC[C@@H](O)[C@H](O)[C@H]3O)[C@H]2OC(=O)/C=C/c2ccc(O)c(O)c2)[C@H](O)[C@H](O)[C@H]1O (some centres unmarked) [Arenarioside] | SARS CoV-2 M^pro (Severe acute respiratory syndrome coronavirus 2) | 99.1%
Cc1cc(=O)oc2cc(O)c(O)cc12 [4-Methylesculetin] | SARS CoV-2 M^pro (Severe acute respiratory syndrome coronavirus 2) | 79.1%
C[C@@H]1O[C@@H](OC[C@H]2O[C@@H](OCCc3ccc(O)c(O)c3)[C@H](O)[C@@H](O)[C@@H]2OC(=O)/C=C/c2ccc(O)c(O)c2)[C@H](O)[C@H](O)[C@H]1O [Forsythoside A] | SARS CoV-2 M^pro (Severe acute respiratory syndrome coronavirus 2) | 77%
Cc1ccc(O)c(O)c1 [4-Methylcatechol] | SARS CoV-2 M^pro (Severe acute respiratory syndrome coronavirus 2) | 103%
O=c1c(O)c(-c2cc(O)c(O)c(O)c2)oc2cc(O)cc(O)c12 [Myricetin] | SARS CoV-2 M^pro (Severe acute respiratory syndrome coronavirus 2) | 90.6%

What value of inhibition at 80 µM has been recorded for this entry: O=c1oc2c(O)cc(O)cc2c2oc3cc(O)c(O)cc3c12 [Isodemethylwedelolacton] 99.7%

// next record COC(=O)[C@@H](Cc1ccc(O)c(O)c1)OC(=O)[C@@H]1c2c(/C=C/C(=O)O[C@H](Cc3ccc(O)c(O)c3)C(=O)O)ccc(O)c2O[C@H]1c1ccc(O)c(O)c1 [9'-Methyl Lithospermate B] 73.6%

###

Catalogue of inhibition at 80 µM readings, one per entry.
Target: SARS CoV-2 M^pro (Severe acute respiratory syndrome coronavirus 2)
Construct: The main protease (M^pro) is a part of the polyprotein chain, also named 3C-like protease; SUMO (cleaved yes); His; made in house; host or cells: Escherichia coli BL21(DE3)
Experiment: biochemical
Format: biochemical
Details: read-out: Inhibition%(80μM)
Response body: numeric value in %, unit text excluded.

What value of inhibition at 80 µM has been recorded for this entry: C[C@@H]1O[C@@H](OC[C@H]2O[C@@H](OCCc3ccc(O)c(O)c3)[C@H](O)[C@@H](OC(=O)/C=C/c3ccc(O)c(O)c3)[C@@H]2O)[C@H](O)[C@H](O)[C@H]1O [Isoforsythiaside] 100

###

Catalogue of inhibition at 80 µM readings, one per entry.
Biological target: SARS CoV-2 M^pro (Severe acute respiratory syndrome coronavirus 2)
Construct: The main protease (M^pro) is a part of the polyprotein chain, also named 3C-like protease; SUMO (cleaved yes); His; made in house; host or cells: Escherichia coli BL21(DE3)
Assay: biochemical
Format: biochemical
Settings: read-out: Inhibition%(80μM)
Response body: numeric value in %, unit text excluded.

Examples with their reported inhibition at 80 µM follow.
compound | test result
O=c1cc(-c2ccc(O)cc2)oc2cc(O)c(O)c(O)c12 [Scutellarein] | 84.1
O=C(O[C@@H]1O[C@@H]2COC(=O)c3cc(O)c(O)c(O)c3-c3c(cc(O)c(O)c3O)C(=O)O[C@H]([C@H]1O)[C@@H]2O)c1cc(O)c(O)c(O)c1 [Corilagin] | 101
Oc1cc(O)cc(/C=C/c2c(O)cccc2O)c1 [Gnetol] | 81.5
O=C(O)c1ccc2c(c1)C(=O)c1ccccc1C2=O [Anthraquinone-2-Carboxylic Acid] | 85.4
CC1=CC(=O)C=C(C)C1=O [2,6-Dimethylbenzoquinone] | 102

# next compound below
Fill in the recorded inhibition at 80 µM for this compound, with SARS CoV-2 M^pro (Severe acute respiratory syndrome coronavirus 2) as test system: C[C@@H]1O[C@@H](OC[C@H]2O[C@@H](OCCc3ccc(O)c(O)c3)[C@H](O)[C@@H](O)[C@@H]2O)[C@H](O)[C@H](O)[C@H]1O [Forsythoside E] 103
